- Tested on: HCT-116 colon
- protocolSummary: NCI-60 one-dose screen, 48 h (100 = growth as untreated, 0 = no growth, -100 = all killed)
- statedConditions: 10 µM unless noted
About 83,000 compounds went through this panel and 20% of them were active in at least one assay; those are over-represented in the sample as a whole.
Response field label: string, one of 1 (growth strictly below 20%) or 0.

O=C(CSc1nc2ccccc2c(=O)n1CCc1ccccc1)Nc1ccc(S(=O)(=O)Nc2ccc(Cl)nn2)cc1	0
CC(Nc1ncnc2ccc(-c3cnc4cnccn34)cc12)c1ccccc1 (centres undefined)	0
COc1cc(C(=O)c2cc(C(C)=O)c3cccc(C)n23)cc(OC)c1OC	1
Cc1nc(N)sc1-c1csc(Nc2ccc(C(F)(F)F)cc2)n1	0
Cc1cccc(N2CCN(C3=C(Cl)C(=O)c4ncccc4C3=O)CC2)c1	1

A record lists `CCN(CC)c1ccc(/C=N/NC(=O)c2ccc(S(N)(=O)=O)cc2)cc1` . Is its growth below 20%?
0

Does the reported growth of `CN1CCN(c2ccc(Nc3nc(NCCNS(=O)(=O)c4ccc(Cl)cc4)c4sccc4n3)cc2)CC1` stay below 20%?
0

Problem: For the molecule `CN(C)S(=O)(=O)c1ccc(-c2nc(C(Cl)Cl)nc3cc(-c4ccc(F)cc4)nn23)cc1` , is growth under 20%?
1

Answer whether the molecule `C[C@@H]1OCC2(CCN(c3cnc(C(=O)Nc4cc(F)cc5cccnc45)cn3)CC2)[C@@H]1N` has growth strictly less than 20%
1

Hey, just so you know, these numbers are from PubChem BioAssay (NCI).
